Just for reference, PubChem BioAssay (EPA / NIEHS) is where these values come from.

Assay: ATG_M_61_CIS: Attagene CIS-FACTORIAL HepG2 Assay for M61 Transcription Factor (Internal Marker) (AID 2282937)
Settings: HepG2 Attagene CIS-FACTORIAL M61 internal marker reporter; actives raise or lower the signal
Active and inactive are the calls of the source. Rule for the calls: active = hit-call score of the fitted dose curve at least 0.9, where 1 is the maximum; inactive = score below 0.9.
MEASURED_ENDPOINT: outcome

Take a look at these entries with their results.
| MOLECULE | RECORDED_VALUE |
| --- | --- |
| O=C1c2c(O)cccc2Cc2cccc(O)c21 | inactive |
| C=CCCCCCCCCCCCC | inactive |
| O=[Si]=O | inactive |
| CN(C)C(=O)NC1(c2ccccc2)CCN(CCC[C@]2(c3ccc(Cl)c(Cl)c3)CCCN(C(=O)c3ccccc3)C2)CC1 | inactive |

## Task Quick check: outcome of CC(=O)[C@@]1(O)CC[C@H]2[C@@H]3CCC4=CC(=O)CC[C@]4(C)[C@H]3CC[C@@]21C ?
## Result inactive

## Task Item under review: NCCOCCOCCN . Reported outcome?
## Result inactive

## Task Quick one: outcome for CCN(CC)CCOc1ccc(C(=C(Cl)c2ccccc2)c2ccccc2)cc1 ?
## Result inactive

* * *

Read-out: matrix metalloproteinase-10 (MMP10), MMP10 (gene 4319)
Assay: LTEA_HepaRG_MMP10: Life Technologies and Expression Analysis (LTEA) Assay for matrix metalloproteinase-10 (MMP10) using HepaRG (AID 2283517)
Conditions: mRNA level, 48 h; actives raise or lower the signal
Calls of active or inactive are those of the source. How the source made its calls: active means hit-call score of the fitted dose curve at least 0.9, where 1 is the maximum; inactive means score below 0.9.
Allowed answers: 1.0 (active), 0.0 (inactive)

Example entries begin here.
| MOLECULE | CLASS_NAME |
| --- | --- |
| CCCCc1nc2cccnc2n1Cc1ccc(-c2ccccc2-c2nnn[nH]2)cc1 | 0.0 |
| O=C(O)CN(CC(=O)O)CC(=O)O | 0.0 |
| C=CCCCCCCCCCCCC | 0.0 |
| S=c1[nH]c2ccccc2s1 | 0.0 |
| CCOCCOCCO | 0.0 |
| CCCCC(CC)CO (centres undefined) | 0.0 |
| CC(=O)O | 0.0 |
| CCCCCCCC(=O)OC | 0.0 |

## Task Per the records of this test, what outcome belongs to O=C(O)c1[nH]n(-c2ccc(S(=O)(=O)O)cc2)c(=O)c1N=Nc1ccc(S(=O)(=O)O)cc1 ?
## Result 0.0

## Task Please share the test call associated with NC(=Nc1ccccc1)Nc1ccccc1 .
## Result 0.0

## Task Please indicate how the test categorized CCCCOC(=O)CCCCC(=O)OCCCC .
## Result 0.0

## Task Fill in: this test's call for Nc1nc(=S)c2[nH]cnc2[nH]1 is ___
## Result 0.0

## Task # lookup: test call for O=C1CCCCC1
## Result 0.0

## Task Tell me the assay call for COC(=O)CCCC(=O)OC please.
## Result 0.0

## Task Dear colleague, could you share the recorded outcome for Cc1cn([C@H]2C=C[C@@H](CO)O2)c(=O)[nH]c1=O when you have a moment?
## Result 0.0

## Task I would be grateful if you could indicate the recorded call for CCCCCCCCCCCCCCOS(=O)(=O)O .
## Result 0.0

## Task Lab log entry: CC(C)(O)c1ccc(CNC(=O)c2cccnc2Oc2ccc(F)cc2)cc1 — outcome as called in the assay?
## Result 0.0

## Task GET /call?item= CC(=O)CC(c1ccccc1)c1c(O)c2ccccc2oc1=O (centres undefined) returns the recorded outcome of this test.
## Result 0.0

## Task Kindly provide the recorded test outcome for the following molecule: CC(=O)OC1CC(C)OC(C)O1 (centres undefined)
## Result 0.0

* * *

Test: STM_H9_CystineISnorm_perc: Stemina devTOX quickPredict H9 human embryonic stem cell (hESC)-based Assay for Cystine (CYSS) Metabolite Biomarker, Normalized (AID 2283713)
The source made the active and inactive calls. The calls were made as follows: active = hit-call score of the fitted dose curve at least 0.9, where 1 is the maximum; inactive = score below 0.9.
Your response should consist of one outcome taken from T (active), F (inactive)

Consider the worked cases shown below.
| COMPOUND | CLASS_NAME |
| --- | --- |
| CCC(C)N(C)C(=O)c1cc2ccccc2c(-c2ccccc2Cl)n1 (configuration not stated) | F |
| CC(=O)CC(c1ccccc1)c1c(O)c2ccccc2oc1=O (configuration not stated) | F |

## Task State the result this test recorded for Cc1cc(Cc2ccc(N)c(C)c2)ccc1N .
## Result F

## Task // outcome(item) with item = O=C(O)c1cccnc1
## Result F

## Task # fetch the recorded call for O=C(O)CN(CC(=O)O)CC(=O)O here
## Result T

## Task Short answer needed: outcome of this test for O=C1OC(c2ccc(O)cc2)(c2ccc(O)cc2)c2ccccc21 ?
## Result F

## Task # outcome recorded in this test, key = CC(=O)S[C@H](C(=O)N[C@H]1Cc2ccccc2[C@H]2CCC[C@@H](C(=O)O)N2C1=O)C(C)C
## Result F

* * *

Read-out: C-C motif chemokine 2 (Homo sapiens) (UniProt P13500)
Test: BSK_KF3CT_MCP1: BioMAP Diversity Plus: KF3CT Assay for Monocyte Chemoattractant Protein 1 (MCP1/CCL2) Biomarker Activity (AID 2283073)
Conditions: primary human keratinocytes with fibroblasts; actives raise or lower the signal
Activity calls are given as the source filed them. Rule for the calls: active = hit-call score of the fitted dose curve at least 0.9, where 1 is the maximum; inactive = score below 0.9.
MEASURED_ENDPOINT: AC50

Here is how some molecules turned out for AC50.
| MOLECULE | AC50 |
| --- | --- |
| O=C(Oc1ccccc1)c1cccc(C(=O)Oc2ccccc2)c1 | inactive |
| CCCCCCC(C=O)=Cc1ccccc1 | inactive |
| C=CCc1ccc(OC)c(OC)c1 | inactive |
| Cc1cc(Cc2ccc(N)c(C)c2)ccc1N | inactive |
| CCCC(=O)O | inactive |
| O=C(O)CC(O)(CC(=O)O)C(=O)O | inactive |
| O=C(NS(=O)(=O)/C=C/c1cccs1)c1ccc(F)cc1Br | inactive |
| CN(C)CCCN1c2ccccc2Sc2ccc(Cl)cc21 | inactive |
| O=C(N[C@@H](c1ccccc1)[C@@H]1CCCCN1)c1cccc(C(F)(F)F)c1Cl | inactive |
| OCC(CO)n1cnc(-c2ccc(F)cc2)c1-c1ccnc(Oc2ccccc2)n1 | inactive |

## Task What value of measured AC50 is listed for Cc1c(C)c2c(c(C)c1O)CCC(C)(COc1ccc(CC3SC(=O)NC3=O)cc1)O2 (stereo not drawn) ?
## Result 15.1 µM (active)

## Task # AC50 lookup, item Nc1nc(=S)c2[nH]cnc2[nH]1
## Result inactive

## Task Using the record for CC(=O)O[C@]1(C(C)=O)CC[C@H]2[C@@H]3C=C(Cl)C4=CC(=O)[C@@H]5C[C@@H]5[C@]4(C)[C@H]3CC[C@@]21C , report its AC50.
## Result inactive

* * *

Assay: Tanguay_ZF_120hpf_ActivityScore_legacy: (Legacy) Oregon State University Tanguay Lab 120 Hour Post-fertilization zebrafish Assay Score for Activity (AID 2283742)
Active and inactive are the calls of the source. How the source made its calls: active means hit-call score of the fitted dose curve at least 0.9, where 1 is the maximum; inconclusive means response in the unintended direction; inactive means score below 0.9.
Choose one outcome from this list and give only that: Yes = active, No = inactive

| MOLECULE_SMILES | CLASS_NAME |
| --- | --- |
| CC(C)(O)c1ccc(CNC(=O)c2cccnc2Oc2ccc(F)cc2)cc1 | No |
| CN(C)CCCN1c2ccccc2Sc2ccc(Cl)cc21 | Yes |

## Task Outcome logged for CC(C)(C)c1ccccc1 in this assay:
## Result Yes

## Task Query: recorded result category for COC(=O)CCC(=O)OC in this test
## Result No

## Task What is the recorded call for this molecule in the test? O=C(Oc1ccccc1)c1cccc(C(=O)Oc2ccccc2)c1
## Result No

* * *

Read-out: Caspase-3 (Homo sapiens)
Assay: LTEA_HepaRG_CASP3: Life Technologies and Expression Analysis (LTEA) Assay for cysteine-aspartic acid protease (CASP3) using HepaRG (AID 2283477)
Conditions: mRNA level, 48 h; actives raise or lower the signal
The source made the active and inactive calls. Rule for the calls: active = hit-call score of the fitted dose curve at least 0.9, where 1 is the maximum; inactive = score below 0.9.
I would appreciate it if you answered using one of these outcomes: active, inactive

# example entries with known answers
| COMPOUND | CLASS_NAME |
| --- | --- |
| CC(C)OC(=O)C(C)(C)Oc1ccc(C(=O)c2ccc(Cl)cc2)cc1 | inactive |
| CCc1nc(N)nc(N)c1-c1ccc(Cl)cc1 | inactive |
| NC=O | inactive |
| O=C(NS(=O)(=O)/C=C/c1cccs1)c1ccc(F)cc1Br | inactive |
| Oc1ccccc1O | inactive |
| NC1CCCCC1 | inactive |
| Nc1nc(Cl)nc2c1ncn2[C@H]1C[C@H](O)[C@@H](CO)O1 | inactive |
| CN(C)C(=O)NC1(c2ccccc2)CCN(CC[C@@]2(c3ccc(F)c(F)c3)CN(C(=O)c3ccccc3)CCO2)CC1 | inactive |

## Task Recorded test call requested for COC(=O)CCCC(=O)OC
## Result inactive

## Task So what was the verdict on O=C(Oc1ccccc1)c1cccc(C(=O)Oc2ccccc2)c1 in this test?
## Result inactive

## Task For O=C(O)CN(CC(=O)O)CC(=O)O , which call appears in the assay record?
## Result inactive

## Task Record request — test call for CC(=O)OC1CC(C)OC(C)O1 (stereo not drawn)
## Result inactive

## Task Short answer needed: outcome of this test for Cc1cn([C@H]2C=C[C@@H](CO)O2)c(=O)[nH]c1=O ?
## Result inactive

## Task Called result for CC(=O)CC(c1ccccc1)c1c(O)c2ccccc2oc1=O (stereo not drawn)
## Result inactive

## Task Test call, this compound: Cn1cnc2c1c(=O)[nH]c(=O)n2C
## Result inactive

## Task What was the test verdict on Oc1ccc(O)cc1 ?
## Result inactive
